# Assay explanation: Renal clearance in healthy human at 100 mg, po administered as single dose measured after 48 hrs
# Format: ADME, organism-based, Kidney
# Experimental setup: in vivo, read-out: CL_renal (converted)
Property name: CL renal at 48 h (mL/min)
// note: answer is a bare numeric in mL/min

Query string: Can you look up the measured CL renal at 48 h of CC[C@H]1OC(=O)[C@H](C)C(=O)[C@H](C)[C@@H](O[C@@H]2O[C@H](C)C[C@H](N(C)C)[C@H]2O)[C@@]2(C)C[C@@H](C)/C(=N\C(C)=O)[C@H](C)[C@@H](OC/C(=N\OCc3ccc(-n4cccn4)nc3)CO2)[C@]1(C)O for me?
Result string: 46.3

----------
# Assay explanation: Cmax in healthy human plasma at 800 mg, po administered as single dose measured after 120 hrs
# Format: ADME, organism-based
# Set-up: dose 800 mg, route oral
Property name: Cmax (ng/mL)
The answer is to be given in ng/mL; state only the numeric part.

Query string: GET /values?readout=Cmax&item= CC[C@H]1OC(=O)[C@H](C)C(=O)[C@H](C)[C@@H](O[C@@H]2O[C@H](C)C[C@H](N(C)C)[C@H]2O)[C@@]2(C)C[C@@H](C)/C(=N\C(C)=O)[C@H](C)[C@@H](OC/C(=N\OCc3ccc(-n4cccn4)nc3)CO2)[C@]1(C)O
Result string: 1070

----------
# Assay explanation: Half life in healthy human plasma at 200 mg, po administered as single dose measured after 120 hrs
# Format: ADME, organism-based
Property name: half-life (h)
The figure you give is taken to be in h; do not add the unit.

Query string: Sample CC[C@H]1OC(=O)[C@H](C)C(=O)[C@H](C)[C@@H](O[C@@H]2O[C@H](C)C[C@H](N(C)C)[C@H]2O)[C@@]2(C)C[C@@H](C)/C(=N\C(C)=O)[C@H](C)[C@@H](OC/C(=N\OCc3ccc(-n4cccn4)nc3)CO2)[C@]1(C)O — what was its half-life?
Result string: 15.8

----------
# Assay explanation: AUC (0 to last) in healthy human plasma at 400 mg, po administered as single dose measured after 120 hrs
# Type: ADME, organism-based
# Parameters: dose 400 mg, route oral, time 0 - last
Property name: AUC(0-t) at 120 h

Query string: Quick one: AUC(0-t) at 120 h for CC[C@H]1OC(=O)[C@H](C)C(=O)[C@H](C)[C@@H](O[C@@H]2O[C@H](C)C[C@H](N(C)C)[C@H]2O)[C@@]2(C)C[C@@H](C)/C(=N\C(C)=O)[C@H](C)[C@@H](OC/C(=N\OCc3ccc(-n4cccn4)nc3)CO2)[C@]1(C)O ?
Result string: 14300 ng·h/mL

----------
# Assay explanation: Apparent volume of distribution in healthy human plasma at 100 mg, po administered as single dose measured after 120 hrs
# Format: ADME, organism-based
Property name: Vd/F
Returns: string containing the numeric result and its unit.

Query string: Requested read-out: Vd/F. Entry: CC[C@H]1OC(=O)[C@H](C)C(=O)[C@H](C)[C@@H](O[C@@H]2O[C@H](C)C[C@H](N(C)C)[C@H]2O)[C@@]2(C)C[C@@H](C)/C(=N\C(C)=O)[C@H](C)[C@@H](OC/C(=N\OCc3ccc(-n4cccn4)nc3)CO2)[C@]1(C)O [MODITHROMYCIN]
Result string: 656 L

----------
# Assay explanation: Apparent oral clearance in healthy human plasma at 1200 mg, po administered as single dose measured after 120 hrs
# Type: ADME, organism-based
Property name: CL/F (mL/min)
Numbers only; they are read as mL/min.

Query string: What does the record list as CL/F for CC[C@H]1OC(=O)[C@H](C)C(=O)[C@H](C)[C@@H](O[C@@H]2O[C@H](C)C[C@H](N(C)C)[C@H]2O)[C@@]2(C)C[C@@H](C)/C(=N\C(C)=O)[C@H](C)[C@@H](OC/C(=N\OCc3ccc(-n4cccn4)nc3)CO2)[C@]1(C)O ?
Result string: 523

----------
# Assay explanation: Terminal half life in healthy human at 400 mg, po administered as single dose
# Format: ADME, organism-based
# Experimental setup: in vivo
Property name: half-life (h)
Answer with a number only, understood to be in h.

Query string: Tell me the measured half-life of CC[C@H]1OC(=O)[C@H](C)C(=O)[C@H](C)[C@@H](O[C@@H]2O[C@H](C)C[C@H](N(C)C)[C@H]2O)[C@](C)(OC)C[C@@H](C)C(=O)[C@H](C)[C@H]2N(CCCCn3cnc(-c4cccnc4)c3)C(=O)O[C@]12C , please.
Result string: 6.68

----------
# Assay explanation: Half life in healthy human plasma at 1200 mg, po administered as single dose measured after 120 hrs
# Assay type: ADME, organism-based
Property name: half-life
In your response, put the unit directly after the numeric value.

Query string: What half-life value was documented for this compound, CC[C@H]1OC(=O)[C@H](C)C(=O)[C@H](C)[C@@H](O[C@@H]2O[C@H](C)C[C@H](N(C)C)[C@H]2O)[C@@]2(C)C[C@@H](C)/C(=N\C(C)=O)[C@H](C)[C@@H](OC/C(=N\OCc3ccc(-n4cccn4)nc3)CO2)[C@]1(C)O ?
Result string: 20.1 h

----------
# Assay explanation: AUC (0 to last) in healthy human plasma at 800 mg, po administered as single dose measured after 120 hrs
# Type: ADME, organism-based
# Design: dose 800 mg, route oral, time 0 - last
Property name: AUC(0-t) at 120 h (ng·h/mL)
The answer is to be given in ng·h/mL; state only the numeric part.

Query string: Entry CC[C@H]1OC(=O)[C@H](C)C(=O)[C@H](C)[C@@H](O[C@@H]2O[C@H](C)C[C@H](N(C)C)[C@H]2O)[C@@]2(C)C[C@@H](C)/C(=N\C(C)=O)[C@H](C)[C@@H](OC/C(=N\OCc3ccc(-n4cccn4)nc3)CO2)[C@]1(C)O [MODITHROMYCIN] : reported AUC(0-t) at 120 h = ?
Result string: 33400

----------
# Assay explanation: AUC (0 to infinity) in healthy human plasma at 100 mg, po administered as single dose measured after 120 hrs
# Assay type: ADME, organism-based
# Parameters: dose 100 mg, route oral, time infinity
Property name: AUC(0-inf) (ng·h/mL)
A number alone suffices; assume ng·h/mL.

Query string: I'd like to know its AUC(0-inf). The compound in question is CC[C@H]1OC(=O)[C@H](C)C(=O)[C@H](C)[C@@H](O[C@@H]2O[C@H](C)C[C@H](N(C)C)[C@H]2O)[C@@]2(C)C[C@@H](C)/C(=N\C(C)=O)[C@H](C)[C@@H](OC/C(=N\OCc3ccc(-n4cccn4)nc3)CO2)[C@]1(C)O
Result string: 3430

----------
# Assay explanation: Apparent volume of distribution in healthy human plasma at 1200 mg, po administered as single dose measured after 120 hrs
# Format: ADME, organism-based
Property name: Vd/F (L)
Numeric only. Scale: L

Query string: Any idea what its Vd/F is? The compound is CC[C@H]1OC(=O)[C@H](C)C(=O)[C@H](C)[C@@H](O[C@@H]2O[C@H](C)C[C@H](N(C)C)[C@H]2O)[C@@]2(C)C[C@@H](C)/C(=N\C(C)=O)[C@H](C)[C@@H](OC/C(=N\OCc3ccc(-n4cccn4)nc3)CO2)[C@]1(C)O
Result string: 909

----------
# Assay explanation: Renal clearance in healthy human assessed as cumulative fraction excreted unchanged in urine at 1200 mg, po administered as single dose measured after 48 hrs
# Type: ADME, organism-based
# Experimental setup: read-out: Fraction Recovered in urine
Property name: dose excreted at 48 h (%)
Dear colleague, please return just the value in %, with no unit written.

Query string: Look up dose excreted at 48 h for this compound: CC[C@H]1OC(=O)[C@H](C)C(=O)[C@H](C)[C@@H](O[C@@H]2O[C@H](C)C[C@H](N(C)C)[C@H]2O)[C@@]2(C)C[C@@H](C)/C(=N\C(C)=O)[C@H](C)[C@@H](OC/C(=N\OCc3ccc(-n4cccn4)nc3)CO2)[C@]1(C)O
Result string: 5.84

----------
# Assay explanation: Cmax in healthy human at 400 mg, po administered as single dose
# Format: ADME, organism-based
# Parameters: dose 400 mg, route oral
# Experimental setup: in vivo
Collected Cmax values appear next to each entry.

CC[C@H]1OC(=O)[C@H](C)[C@@H](O[C@H]2C[C@@](C)(OC)[C@@H](O)[C@H](C)O2)[C@H](C)[C@@H](O[C@@H]2O[C@H](C)C[C@H](N(C)C)[C@H]2O)[C@](C)(OC)C[C@@H](C)C(=O)[C@H](C)[C@@H](O)[C@]1(C)O 780 ng/mL

Lab note: next compound to report on.
Query string: So what does the record say about Cmax for CC[C@H]1OC(=O)[C@H](C)C(=O)[C@H](C)[C@@H](O[C@@H]2O[C@H](C)C[C@H](N(C)C)[C@H]2O)[C@](C)(OC)C[C@@H](C)C(=O)[C@H](C)[C@H]2N(CCCCn3cnc(-c4cccnc4)c3)C(=O)O[C@]12C ?
Result string: 800 ng/mL
